measured.on: BRAF V600E (Homo sapiens, UniProt P15056, V600E)
Construct: endogenous C-terminal HiBiT fusion tag on BRAF V600E allele; endogenous in cells; host or cells: A375 clone 1F10 (CRISPR-Cas9 knock-in of the HiBiT tag; parental A375 from ATCC)
Sequence (P15056 whole entry V600E, the tested form may be a part): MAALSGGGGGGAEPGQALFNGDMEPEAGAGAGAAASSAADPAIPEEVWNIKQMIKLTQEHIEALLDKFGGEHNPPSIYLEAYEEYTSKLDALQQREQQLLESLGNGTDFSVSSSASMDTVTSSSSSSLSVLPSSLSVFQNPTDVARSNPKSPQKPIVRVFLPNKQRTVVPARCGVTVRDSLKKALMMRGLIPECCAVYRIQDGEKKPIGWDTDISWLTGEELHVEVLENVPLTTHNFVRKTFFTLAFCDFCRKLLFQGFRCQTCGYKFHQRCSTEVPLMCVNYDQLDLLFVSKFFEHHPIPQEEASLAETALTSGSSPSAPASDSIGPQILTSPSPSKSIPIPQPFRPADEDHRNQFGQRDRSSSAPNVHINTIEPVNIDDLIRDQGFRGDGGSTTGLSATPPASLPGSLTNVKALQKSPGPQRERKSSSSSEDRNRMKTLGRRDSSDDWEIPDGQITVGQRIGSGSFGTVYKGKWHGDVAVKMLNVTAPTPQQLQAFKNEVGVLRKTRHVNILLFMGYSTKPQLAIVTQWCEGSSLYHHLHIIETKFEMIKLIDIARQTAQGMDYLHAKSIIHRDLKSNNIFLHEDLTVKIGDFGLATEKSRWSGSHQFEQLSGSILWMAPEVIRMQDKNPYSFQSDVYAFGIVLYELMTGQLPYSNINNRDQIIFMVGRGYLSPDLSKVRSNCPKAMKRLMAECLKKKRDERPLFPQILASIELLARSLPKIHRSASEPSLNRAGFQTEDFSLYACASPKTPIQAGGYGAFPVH
assay.comment: BRAF HiBiT degradation assay, C-terminal HiBiT-tagged BRAF V600E A375 cells (clone 1F10), Nano-Glo HiBiT Lytic assay
Format: cell-based
conditions: A375 (BRAF V600E); DC50 at 50%: fitted conc. at Y=50
Procedure: An A375 cell line expressing a homozygous V600E mutation was purchased from ATCC (Manassas, VA, USA). […] HiBiT signal was measured by a Nano-Glo HiBiT Lytic assay (Promega cat. no. N3050). […] Luminesce units (LU) were read on an EnVision plate reader 2105 (Perkin Elmer). Percent protein remaining and viability remaining per sample were calculated as follows: […]
measure.name: DC50

>  <compound>
CCCS(=O)(=O)Nc1cccc(-c2nc(C(C)(C)C)sc2-c2ccnc(Nc3cccc(C4CCN(CC[C@@H]5CCN(c6ccc(C7CCC(=O)NC7=O)cn6)C5)CC4)c3)n2)c1F (mixture of isomers)

>  <DC50>
10 to 50 nM

$$$$
>  <compound>
CCCS(=O)(=O)Nc1cccc(-c2nc(-c3ccc(C4CCN(C(=O)CC5CCN(c6ccc(NC7CCC(=O)NC7=O)cc6)CC5)CC4)cc3)sc2-c2ccnc(N)n2)c1F (racemic)

>  <DC50>
10 to 50 nM

$$$$
>  <compound>
CCCS(=O)(=O)Nc1cccc(-c2nc(C(C)(C)C)sc2-c2ccnc(Nc3ccc4c(c3)CCN(CC3CCN(c5ccc6c(=O)n(C7CCC(=O)NC7=O)ccc6c5)CC3)C4)n2)c1F (racemic)

>  <DC50>
10 to 50 nM

$$$$
>  <compound>
CCCS(=O)(=O)Nc1cccc(-c2nc(C(C)(C)C)sc2-c2ccnc(Nc3cccc(OC4CCN(CC[C@H]5CCN(c6ccc(C7CCC(=O)NC7=O)cn6)C5)CC4)c3)n2)c1F (mixture of isomers)

>  <DC50>
10 to 50 nM

$$$$
>  <compound>
CCN(C)S(=O)(=O)Nc1cccc(-c2nc(C(C)(C)C)sc2-c2ccnc(Nc3ccc(N4CCN(C(=O)C5CCN(c6ccc(C7CCC(=O)NC7=O)cn6)CC5)CC4)cn3)n2)c1F (racemic)

>  <DC50>
< 10 nM

$$$$
>  <compound>
CCCS(=O)(=O)Nc1cccc(-c2nc(C)sc2-c2ccnc(Nc3ccc(C4CCN(CC5CCN(c6ccc([C@H]7CCC(=O)NC7=O)cc6)CC5)CC4)cc3)n2)c1F

>  <DC50>
< 10 nM

$$$$
>  <compound>
CCCS(=O)(=O)Nc1cccc(-c2nc(C3(C)CCN(C(=O)CN4CCN(c5ccc6c(c5)C(=O)N(C5CCC(=O)NC5=O)C6=O)CC4)CC3)sc2-c2ccnc(N)n2)c1F (racemic)

>  <DC50>
50 to 500 nM

$$$$
>  <compound>
CCCS(=O)(=O)Nc1cccc(-c2nc(C)sc2-c2ccnc(Nc3ccc(C4CCN(CC5CCN(c6ccc([C@@H]7CCC(=O)NC7=O)cc6)CC5)CC4)cc3)n2)c1F

>  <DC50>
10 to 50 nM

$$$$

Lab entry: BRAF V600E (Homo sapiens, UniProt P15056, V600E) assay, compound CCCS(=O)(=O)Nc1cccc(-c2nc(C(C)(C)C)sc2-c2ccnc(NC3CC4(C3)CN(C(=O)CN3CCN(CCCc5cccc6c5C(=O)N(C5CCC(=O)NC5=O)C6=O)CC3)C4)n2)c1F (racemic) , DC50 = > 500 nM

Lab entry: BRAF V600E (Homo sapiens, UniProt P15056, V600E) assay, compound CCCS(=O)(=O)Nc1cccc(-c2cn(-c3ccc(N4CCN(CC5CCN(c6ccc([C@@H]7CCC(=O)NC7=O)cc6)CC5)CC4)cc3)nc2-c2ccncc2)c1F , DC50 = 10 to 50 nM
